Parameter amyloid nucleation score: see the listing below.
Test: amyloid nucleation score (Sup35N fusion, yeast selection) (log enrichment); library NNK2; higher = more nucleation; inactive = no reads after selection;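 note: zero at mode of non-aggregating sequences after 7 days selection at 30°C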
Lab note: record the figure alone, no unit after it.

1. FSCEACIFLLYSYMFMNL :: -0.522

Provide amyloid nucleation score value for the following substance: `CCSVCFRRLLYLLSRR`
6.9

---

Assay: amyloid nucleation score (Sup35N fusion, yeast selection) (log enrichment); library NNK3; higher = more nucleation; inactive = no reads after selection
endpoint-name: amyloid nucleation score

Example results:
1) HRDETGVHAVALSKSVWYKW :: -1.07
2) FFRNDCGHVFSYVAGSES :: inactive
3) MRNMCVLAIILILCFGTRFK :: 1.21
4) AKTSRMNFKNNFMCQGCKWS :: -0.604
5) YWMNERLTSSKYDAGR :: inactive
6) ESLIRVICMVDERSEQTWSG :: inactive
7) YISYLDMDCEFVLS :: inactive
8) LVVDYLEFCTFLVDVENIWT :: inactive
9) RCNKRTEGVSE :: inactive
10) PITDNHFG :: -0.697

Provide amyloid nucleation score value for the following substance: `VGSCIVKMIDFASTKGRGLI`
inactive

Provide amyloid nucleation score value for the following substance: `YGAMSAGDMETY`
inactive

---

Assay: amyloid nucleation score (Sup35N fusion, yeast selection) (log enrichment); library NNK2; higher = more nucleation; inactive = no reads after selection
Parameter amyloid nucleation score: see the listing below.
Lab note: record the figure alone, no unit after it.

Example results:
1) YTRGCSFHIRVSSLCGQYNI :: 1.65
2) EYVVSLHVFRLHIKLKIFRV :: -0.09
3) LQCRLIRVMYVMHCDVWVV :: -0.087

Provide amyloid nucleation score value for the following substance: `CNCDMLFCTTVSFRVLDTEN`
8.29

Provide amyloid nucleation score value for the following substance: `RNGFAIRITANHYTQLVYDL`
3.82

Provide amyloid nucleation score value for the following substance: `LCEEICLDFFMVRMFKHASY`
1.63

Provide amyloid nucleation score value for the following substance: `SRYGWMNRWKQPVQVVNPGF`
0.031

Provide amyloid nucleation score value for the following substance: `LIRFYEIFSW`
-0.237

Provide amyloid nucleation score value for the following substance: `HRFSGVVIYNINRSSTIGN`
7.33

Provide amyloid nucleation score value for the following substance: `LELMEYPL`
-0.153

Provide amyloid nucleation score value for the following substance: `EVELALGGSELGGVVSWLM`
1.77

Provide amyloid nucleation score value for the following substance: `HWLTKISGTTPELYPRERVV`
0.071

Provide amyloid nucleation score value for the following substance: `RCVGNCMMSLRAEYD`
2.8

Provide amyloid nucleation score value for the following substance: `DRINSFLFRETVWQNNWVIS`
-0.263

Provide amyloid nucleation score value for the following substance: `FFYALGYRISDAMEIRRVGS`
2.35

---

Experiment: amyloid nucleation score (Sup35N fusion, yeast selection) (log enrichment); library NNK3; higher = more nucleation; inactive = no reads after selection
endpoint-name: amyloid nucleation score

1. TRPLSDPVLINVYWRETSYP :: -0.33
2. SWLANRYMGDYIRQWVWDKL :: -0.932
3. SLVPDNAANAMRPTWINLWW :: 1.84
4. STRRSYNPCYWSGLYSSIGH :: inactive
5. YSAQFITSIGLGQKLFS :: inactive

Provide amyloid nucleation score value for the following sequence: `SRFDDCSVYRESWVSIVRLS`
inactive

Provide amyloid nucleation score value for the following sequence: `IVIRTSSDTNVRAAVQLRMN`
inactive
